- MEASUREMENT_TARGET: HDM2 (truncated, residues 17 to 125, containing p53 binding surface) (Homo sapiens (Human), UniProt Q00987)
- Sequence (Q00987 17-125): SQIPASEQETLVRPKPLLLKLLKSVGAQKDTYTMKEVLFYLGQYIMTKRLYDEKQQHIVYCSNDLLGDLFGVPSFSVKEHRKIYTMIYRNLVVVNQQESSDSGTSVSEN
- PROTOCOL_SUMMARY: HDM2 FRET assay (inhibition of binding of FITC labeled p53-site peptide to HDM2)
- SETUP_CONDITIONS: Table 16
Note to self: IC50 under 0.06 µM means satisfied, ties and anything higher get not satisfied.

Please review the entries below; each comes with its answer.
C[C@H]1CC[C@H](Cn2c(N3CCCC4COCCC43)nc3nc(-c4n[nH]c(=O)o4)nc(-c4cccc(Cl)c4)c32)CC1 (single isomer, unassigned) [Example 16.124] = not satisfied
C[C@H]1CC[C@H](Cn2c(N3CCOC4CCCCC43)nc3nc(-c4noc(=O)[nH]4)nc(-c4cncc(Cl)c4)c32)CC1 (single isomer, unassigned) [Example 16.52] = satisfied
C[C@H]1CC[C@H](Cn2c(N3CCCC4COCCC43)nc3nc(-c4n[nH]c(=O)o4)nc(-c4cccc(Cl)c4)c32)CC1 (single isomer, unassigned) [Example 16.125] = satisfied

Please examine the following record next.
query: Quick check: IC50 of COC(C)(C)C1CCCN1c1nc2nc(-c3n[nH]c(=O)o3)nc(-c3cccc(Cl)c3)c2n1C[C@H]1CC[C@H](C)CC1 (single isomer, unassigned) [Example 16.71] under 0.06 µM?
result: satisfied

====

- MEASUREMENT_TARGET: HDM2 (truncated, residues 17 to 125, containing p53 binding surface) (Homo sapiens (Human))
- PROTOCOL_SUMMARY: HDM2 FRET assay (inhibition of binding of FITC labeled p53-site peptide to HDM2)
- SETUP_CONDITIONS: Table 23
- Excerpt: IC50 DETERMINATIONS: Dose-response curves were plotted from the inhibition data, from 10 point serial dilutions of inhibitory compounds. Concentration of compound was plotted against em520/Cem495 ratio signal. To generate IC50 values, the dose-response curves were fitted to a standard sigmoidal curve and IC50 values were derived by nonlinear regression analysis.
Each record here notes measured IC50.
Your answer is read as nM, so omit the unit and give the number.

query: Suppose we examine the compound CC(O)(c1nc2nc(-c3noc(=O)[nH]3)nc(-c3cccc(Cl)c3)c2n1C[C@H]1CC[C@H](C)CC1)C1CCCCC1 (mixture of isomers) ; what IC50 value has been reported?
result: 15.6

query: Also CC(F)(c1ccccn1)c1nc2nc(-c3n[nH]c(=O)o3)nc(-c3cccc(Cl)c3)c2n1C[C@H]1CC[C@H](C)CC1 (single isomer, unassigned) [Example 23.37] , if possible.
result: 9.65

query: Also CC(F)(c1ccccn1)c1nc2nc(-c3n[nH]c(=O)o3)nc(-c3cccc(Cl)c3)c2n1C[C@H]1CC[C@H](C)CC1 (single isomer, unassigned) [Example 23.36] , if possible.
result: 9.68

====

Each record here notes measured pIC50.
- MEASUREMENT_TARGET: HDM2 (truncated, residues 17 to 125, containing p53 binding surface) (Homo sapiens (Human), UniProt Q00987)
- PROTOCOL_SUMMARY: HDM2 FRET assay (inhibition of binding of FITC labeled p53-site peptide to HDM2)
- SETUP_CONDITIONS: Table 16
Note: pIC50 values are expressed as the negative base-10 logarithm of concentration in M.

Cc1ncc(Cl)cc1-c1nc(-c2noc(=O)[nH]2)nc2nc(N3CCO[C@@H]4CCC[C@H]43)n(C[C@H]3CC[C@H](C)CC3)c12 (racemic) [Example 16.164] = 8.68

query: Suppose we examine the molecule Cc1noc(C2CCCN2c2nc3nc(-c4n[nH]c(=O)o4)nc(-c4cncc(Cl)c4)c3n2C[C@H]2CC[C@H](C)CC2)n1 (mixture of isomers) [Example 16.146] ; what pIC50 value has been reported?
result: 8.52

query: Also C[C@H]1CC[C@H](Cn2c(N3CCOC4CCCCC43)nc3nc(-c4noc(=O)[nH]4)nc(-c4cccc(Cl)c4)c32)CC1 (single isomer, unassigned) [Example 16.78] , if possible.
result: 8.86

query: Also Cc1noc(C2CCCN2c2nc3nc(C(=O)O)nc(-c4cncc(Cl)c4)c3n2C[C@H]2CC[C@H](C)CC2)n1 (mixture of isomers) [Example 16.145] , if possible.
result: 8.41

query: Also COC(C)(C)C1CCCN1c1nc2nc(-c3n[nH]c(=O)o3)nc(-c3cccc(Cl)c3)c2n1C[C@H]1CC[C@H](C)CC1 (single isomer, unassigned) [Example 16.70] , if possible.
result: 8.64

query: Also C[C@H]1CC[C@H](Cn2c(N3CCOC4CCCCC43)nc3nc(-c4noc(=O)[nH]4)nc(-c4cncc(Cl)c4)c32)CC1 (single isomer, unassigned) [Example 16.51] , if possible.
result: 7.52

query: Also COC(C)(C)C1CCCN1c1nc2nc(-c3noc(=O)[nH]3)nc(-c3cncc(Cl)c3)c2n1C[C@H]1CC[C@H](C)CC1 (single isomer, unassigned) [Example 16.72] , if possible.
result: 9.01

query: Also CO[C@@H]1CCN(c2nc3nc(-c4n[nH]c(=O)o4)nc(-c4cncc(Cl)c4)c3n2C[C@H]2CC[C@H](C)CC2)[C@@H](C)C1 (racemic) [Example 16.155] , if possible.
result: 7.31

query: Also C[C@H]1CC[C@H](Cn2c(N3CCO[C@H]4CCCC[C@H]43)nc3nc(-c4noc(=O)[nH]4)nc(-c4cncc(Cl)c4)c32)CC1 (racemic) [Example 16.131] , if possible.
result: 7.46

query: Also COCCOc1cc(Cl)cc(-c2nc(-c3noc(=O)[nH]3)nc3nc(N4CCO[C@@H]5CCC[C@H]54)n(C[C@H]4CC[C@H](C)CC4)c23)c1 (racemic) [Example 16.160] , if possible.
result: 7.68

query: Also Cc1nnc(C2CCCN2c2nc3nc(-c4noc(=O)[nH]4)nc(-c4cncc(Cl)c4)c3n2C[C@H]2CC[C@H](C)CC2)o1 (mixture of isomers) [Example 16.141] , if possible.
result: 7.57
